tgt: 4,4'-diapophytoene desaturase (4,4'-diaponeurosporene-forming) (Staphylococcus aureus (strain Newman), UniProt O07855)
protocolSummary: Inhibition of CrtN in Staphylococcus aureus Newman assessed as reduction in staphyloxanthin levels after 48 hrs by spectrophotometric method-based pigment inhibition assay
Set-up: species or system Staphylococcus aureus subsp. aureus str. Newman
pIC50: −log10 of the molar value.
propertyLabel: pIC50

>  <compoundString>
CN(C/C=C/c1cccc([N+](=O)[O-])c1)Cc1coc2ccccc12

>  <comparativeSign>
<

>  <readoutNumber>
6.00

$$$$
>  <compoundString>
CN(C/C=C/c1cccs1)Cc1cccc2cc[nH]c12

>  <comparativeSign>
<

>  <readoutNumber>
6.00

$$$$
>  <compoundString>
CN(CCCc1ccc(-c2ccccc2)cc1)Cc1cccc2cc[nH]c12

>  <comparativeSign>
<

>  <readoutNumber>
6.00

$$$$
>  <compoundString>
CN(C/C=C/c1ccc(Cl)cc1)Cc1coc2ccccc12

>  <comparativeSign>
=

>  <readoutNumber>
8.31

$$$$
>  <compoundString>
CCOc1ccc(/C=C/CN(C)Cc2cccc3cc[nH]c23)cc1

>  <comparativeSign>
=

>  <readoutNumber>
7.19

$$$$
>  <compoundString>
CN(C/C=C/c1cccc2ccccc12)Cc1cccc2cc[nH]c12

>  <comparativeSign>
<

>  <readoutNumber>
6.00

$$$$
>  <compoundString>
CN(C/C=C/C1CCCCC1)Cc1cccc2cc[nH]c12

>  <comparativeSign>
<

>  <readoutNumber>
6.00

$$$$
>  <compoundString>
CN(C/C=C/c1ccc(C(F)F)cc1)Cc1coc2ccccc12

>  <comparativeSign>
=

>  <readoutNumber>
8.19

$$$$
>  <compoundString>
Cc1cccc(/C=C/CN(C)Cc2cccc3cc[nH]c23)c1

>  <comparativeSign>
<

>  <readoutNumber>
6.00

$$$$
>  <compoundString>
CN(C/C=C/c1ccc2ccccc2c1)Cc1coc2ccccc12

>  <comparativeSign>
=

>  <readoutNumber>
8.19

$$$$
>  <compoundString>
CN(C/C=C/c1ccc(C(C)(C)C)cc1)Cc1cccc2cc[nH]c12

>  <comparativeSign>
=

>  <readoutNumber>
6.15

$$$$

====

System: HepG2
protocolSummary: Cytotoxicity against human HepG2 cells after 43 hrs by Alamar blue dye-based fluorescence assay
Type: cell-based
details: HepG2, 43 h
Below, each of the compounds is paired with its reported IC50 value.
propertyLabel: IC50 (µM)

>  <compoundString>
C[C@@H]1[C@H](O)[C@@H](C)/C=C/C=C/C=C/C=C/C=C/C=C/C=C/[C@H](O[C@@H]2O[C@H](C)[C@@H](O)[C@H](N)[C@@H]2O)C[C@@H]2O[C@](O)(C[C@@H](O)C[C@@H](O)[C@H](O)CC[C@@H](O)C[C@@H](O)CC(=O)O[C@H]1C)C[C@H](O)[C@H]2C(=O)O

>  <resultUnits>
µM

>  <readoutNumber>
3.1

$$$$
>  <compoundString>
CN(C/C=C/c1ccc(-c2ccccc2)cc1)Cc1cccc2cc[nH]c12.Cl

>  <resultUnits>
µM

>  <readoutNumber>
21.9

$$$$
>  <compoundString>
CN(C/C=C/c1ccc(-c2ccccc2)cc1)Cc1coc2ccccc12.Cl

>  <resultUnits>
µM

>  <readoutNumber>
106

$$$$
>  <compoundString>
CN(C/C=C/c1ccc(Br)cc1)Cc1coc2ccccc12

>  <resultUnits>
µM

>  <readoutNumber>
33

$$$$
>  <compoundString>
CN(C/C=C/c1ccc(Cl)cc1)Cc1coc2ccccc12

>  <resultUnits>
µM

>  <readoutNumber>
60.2

$$$$

Hello, the source for this data is ChEMBL document CHEMBL4024779, in case you need it.
